- protocolSummary: inhibitors of HIV-1 Env-driven cell-cell fusion, primary screen, HeLa-JRFL effector, CEM21 target cells, luciferase (AID 651610)
- conditions: at 16.7 µM unless noted
About 3,900 (1.1%) of roughly 360,000 compounds were called active.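 Rule for the calls: active = mean replicate inhibition score of at least 50 and every replicate individually at or above 50; inconclusive = only one of the two criteria met; inactive = mean below 50 and not all replicates reaching 50.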 Only a selection was taken, and actives are over-represented in it overall.
Classes used: yes for active, no for inactive

{"testSmiles": "Cc1ccc(S(=O)(=O)NCC[C@@H]2CC[C@H](NC(=O)c3ccccn3)[C@H](CO)O2)cc1", "className": "no"}
{"testSmiles": "COc1ccc(S(=O)(=O)N(C)C[C@@H]2Oc3ccc(NC(=O)Nc4c(C)noc4C)cc3C(=O)N([C@H](C)CO)C[C@@H]2C)cc1", "className": "no"}
{"testSmiles": "COc1ccc(NC(=O)Nc2ccc3c(c2)C(=O)N([C@@H](C)CO)C[C@H](C)[C@@H](CN(C)S(=O)(=O)c2ccc(Cl)cc2)O3)cc1", "className": "no"}
{"testSmiles": "C[C@H](CO)N1C[C@H](C)[C@H](CN(C)S(=O)(=O)c2ccc(F)cc2)Oc2ncc(-c3ccc(F)cc3)cc2C1=O", "className": "no"}
{"testSmiles": "C[C@H]1CN([C@@H](C)CO)C(=O)Cc2cc(NC(=O)Nc3ccc(F)cc3)ccc2O[C@H]1CN(C)S(=O)(=O)c1ccccc1", "className": "no"}
{"testSmiles": "C[C@H](CO)N1C[C@H](C)[C@@H](CN(C)S(=O)(=O)c2ccccc2)Oc2ccc(NC(=O)Nc3ccc(F)cc3)cc2CC1=O", "className": "no"}
{"testSmiles": "C[C@@H]1CN([C@@H](C)CO)C(=O)Cc2cc(NC(=O)Nc3ccccc3)ccc2O[C@@H]1CN(C)S(=O)(=O)c1ccc(F)cc1", "className": "yes"}

These entries and their values trace back to PubChem BioAssay AID651610.
